TEST_NAME: Plasma clearance in rat at 5 mg/kg, iv
Type: ADME, organism-based
Design: dose 5 mg/kg, route intravenous
CONDITION_DESCRIPTION: plasma
QUANTITY_MEASURED: clearance
Please state the value followed by its unit.

COMPOUND	clearance
COc1c(-c2ccc3c(c2)CCC3(C)CNS(C)(=O)=O)cc(-n2ccc(=O)[nH]c2=O)cc1C(C)(C)C (stereo not given)	10.2 mL/min/kg
COc1c(-c2ccc3c(CNS(C)(=O)=O)csc3c2)cc(-n2ccc(=O)[nH]c2=O)cc1C(C)(C)C	4.5 mL/min/kg
COc1c(-c2ccc3c(c2)CCC3CNS(C)(=O)=O)cc(-n2ccc(=O)[nH]c2=O)cc1C(C)(C)C (stereo not given)	7.5 mL/min/kg

Kindly give each listed record's clearance.
1. COc1c(-c2ccc3c(c2)CC/C3=N\NS(C)(=O)=O)cc(-n2ccc(=O)[nH]c2=O)cc1C(C)(C)C
2. COc1c(-c2ccc3c(c2)CC=C3CNS(C)(=O)=O)cc(-n2ccc(=O)[nH]c2=O)cc1C(C)(C)C

1: 19.8 mL/min/kg; 2: 12.8 mL/min/kg

* * *

TEST_NAME: Effective permeability of the compound by PAMPA
Type: ADME
CONDITION_DESCRIPTION: read-out: Peff
QUANTITY_MEASURED: Papp (×10⁻⁶ cm/s)
Give bare numbers, in ×10⁻⁶ cm/s.

Please review the entries below; each comes with its answer.
COMPOUND	Papp (×10⁻⁶ cm/s)
COc1c(-c2ccc3c(c2)CC=C3C(C)(C)NS(C)(=O)=O)cc(-n2ccc(=O)[nH]c2=O)cc1C(C)(C)C	4.06
COc1c(-c2ccc3c(c2)CC=C3CNS(C)(=O)=O)cc(-n2ccc(=O)[nH]c2=O)cc1C(C)(C)C	5.43
COc1c(-c2ccc3cc(CNS(C)(=O)=O)sc3c2)cc(-n2ccc(=O)[nH]c2=O)cc1C(C)(C)C	0.81

Kindly give each listed record's Papp.
1. COc1c(-c2ccc3c(CNS(C)(=O)=O)csc3c2)cc(-n2ccc(=O)[nH]c2=O)cc1C(C)(C)C
2. COc1c(-c2ccc3c(c2)CCC3NNS(C)(=O)=O)cc(-n2ccc(=O)[nH]c2=O)cc1C(C)(C)C (centres undefined)
3. COc1c(-c2ccc3nc(NS(C)(=O)=O)sc3c2)cc(-n2ccc(=O)[nH]c2=O)cc1C(C)(C)C
4. COc1c(-c2ccc3c(c2)CC/C3=N\NS(C)(=O)=O)cc(-n2ccc(=O)[nH]c2=O)cc1C(C)(C)C

1: 0.81; 2: 0.24; 3: 1.4; 4: 0.47

Kindly give each listed record's Papp.
1. COc1c(-c2ccc3c(c2)CCC3CNS(C)(=O)=O)cc(-n2ccc(=O)[nH]c2=O)cc1C(C)(C)C (centres undefined)
2. COc1c(C(=O)Nc2ccc(NS(C)(=O)=O)cc2)cc(N2CCC(=O)NC2=O)cc1C(C)(C)C

1: 8.93; 2: 0.22

* * *

TEST_NAME: Inhibition of Hepatitis C virus genotype 1a NS5B polymerase
Set-up: species or system Hepatitis C virus subtype 1a
pIC50: −log10 of the molar value.
Classify as follows. Reported pIC50 greater than or equal to 8: criterion met. Reported pIC50 below: criterion not met.

Known results for compounds:
COMPOUND	CATEGORY
COc1c(-c2ccc3c(c2)CC=C3C(C)(C)NS(C)(=O)=O)cc(-n2ccc(=O)[nH]c2=O)cc1C(C)(C)C	criterion not met
COc1c(-c2ccc3c(CNS(C)(=O)=O)csc3c2)cc(-n2ccc(=O)[nH]c2=O)cc1C(C)(C)C	criterion met

Evaluate "COc1c(-c2ccc3c(CNS(C)(=O)=O)noc3c2)cc(-n2ccc(=O)[nH]c2=O)cc1C(C)(C)C" : pIC50 at minimum 8? criterion not met

Evaluate "COc1c(-c2ccc3nc(NS(C)(=O)=O)sc3c2)cc(-n2ccc(=O)[nH]c2=O)cc1C(C)(C)C" : pIC50 at minimum 8? criterion not met

Evaluate COc1c(-c2ccc3c(c2)CCC3NNS(C)(=O)=O)cc(-n2ccc(=O)[nH]c2=O)cc1C(C)(C)C (stereo not drawn) : pIC50 at minimum 8? criterion not met

Evaluate "COc1c(-c2ccc3c(c2)CC/C3=N\NS(C)(=O)=O)cc(-n2ccc(=O)[nH]c2=O)cc1C(C)(C)C" : pIC50 at minimum 8? criterion met

Evaluate "COc1c(-c2ccc3cc(CNS(C)(=O)=O)sc3c2)cc(-n2ccc(=O)[nH]c2=O)cc1C(C)(C)C" : pIC50 at minimum 8? criterion not met

Ref: ChEMBL document CHEMBL2390823
